# TESTED SYSTEM: Stromal cell-derived factor 1 (Homo sapiens, UniProt P48061)
# Sequence (P48061 whole entry): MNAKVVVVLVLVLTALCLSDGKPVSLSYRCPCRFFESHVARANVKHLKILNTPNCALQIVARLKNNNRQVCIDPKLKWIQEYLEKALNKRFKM
# METHOD: Binding affinity to Texas Red-labelled CXCL12 (unknown origin) assessed as inhibition of CXCL12-Texas Red binding to EGFP-labeled human CXCR4 expressed in HEK293 cell membranes pre-incubated for 1 hr by FRET-based binding assay
Some compounds, each annotated with its measured pKi.
Convention used: pKi is expressed as -log10 of the molar concentration.

Below, 3 compounds whose answers are already recorded.
[[record]]
cpd_smiles = "COc1ccc(C(=O)/C=C/c2ccc(O)c(OC)c2)cc1"
tested_system = "Stromal cell-derived factor 1 (Homo sapiens, UniProt P48061)"
experimental_value = 5.75

[[record]]
cpd_smiles = "O=C(/C=C/c1ccc(O)c(O)c1)c1ccc(Cl)cc1"
tested_system = "Stromal cell-derived factor 1 (Homo sapiens, UniProt P48061)"
experimental_value = 6.46

[[record]]
cpd_smiles = "COc1cc(/C=C/C(=O)c2ccc(F)cc2)ccc1O"
tested_system = "Stromal cell-derived factor 1 (Homo sapiens, UniProt P48061)"
experimental_value = 6.37


Record COc1cc(/C=C/C(=O)c2ccc(C(=O)O)cc2)ccc1O , field pKi: 5.27

Record COc1cc(/C=C/C(=O)c2ccc(Br)cc2)ccc1O , field pKi: 7.36

Record Cl.NCCOCCOc1cc(/C=C/C(=O)c2ccc(Cl)cc2)ccc1O , field pKi: 5.97

Record COc1cc(/C=C/C(=O)c2ccc(C)cc2)ccc1O , field pKi: 6.55

Record COc1cc(-c2cc(-c3ccc(Cl)cc3)nc(C)n2)ccc1O , field pKi: 5.77

Record COc1cc(/C=C/C(=O)c2ccccc2Cl)ccc1O , field pKi: 6.97

Record COc1cc(/C=C2\Cc3cc(Cl)ccc3C2=O)ccc1O , field pKi: 6.97

Record COc1cc(/C=C/C(=O)c2ccc(C(C)C)cc2)ccc1O , field pKi: 7.60

Record COc1cc(/C=C/C(=O)c2ccc(Cl)c(Cl)c2)ccc1O , field pKi: 6.15

Record O=C(/C=C/c1ccc2c(c1)OCCO2)c1ccc(Cl)cc1 , field pKi: 5.86

====

# METHOD: Thermodynamic solubility in pH 7.4 PBS/Cdx buffer incubated for 24 hrs at 22 degC by HPLC method
# Format: physicochemical
# CONDITION DETAILS: read-out: Therm_solubility
VALUE KIND: solubility thermodynamic at 24 h (µM)
Please state the figure in µM; there is no need to write the unit.

Below, 2 molecules whose answers are already recorded.
[[record]]
cpd_smiles = "COc1cc(/C=C2\\COc3cc(Cl)ccc3C2=O)ccc1O"
value_kind = "solubility thermodynamic at 24 h"
experimental_value = 933

[[record]]
cpd_smiles = "COc1cc(/C=C/C(=O)c2ccc(I)cc2)ccc1O"
value_kind = "solubility thermodynamic at 24 h"
experimental_value = 319


Turning now to a further molecule:
Record COc1cc(/C=C2\Oc3cc(Cl)ccc3C2=O)ccc1O , field solubility thermodynamic at 24 h: 330

====

Some molecules, each annotated with its measured solubility kinetic at 24 h, 5 µM.
# METHOD: Kinetic solubility in pH 7.4 HEPES-BSA buffer at 5 uM incubated for 24 hrs at 20 degC by HPLC method
# Format: physicochemical
# CONDITION DETAILS: read-out: Kinetic_solubility

Below, 4 molecules whose answers are already recorded.
[[record]]
cpd_smiles = "COc1cc(/C=C/C(=O)c2ccc(Br)cc2)ccc1O"
value_kind = "solubility kinetic at 24 h, 5 µM"
experimental_value = "> 5 µM"

[[record]]
cpd_smiles = "COc1cc(C(=O)/C=C/c2ccc(Cl)cc2)ccc1O"
value_kind = "solubility kinetic at 24 h, 5 µM"
experimental_value = "> 5 µM"

[[record]]
cpd_smiles = "CNc1nc(-c2ccc(Cl)cc2)cc(-c2ccc(O)c(OC)c2)n1"
value_kind = "solubility kinetic at 24 h, 5 µM"
experimental_value = "> 5 µM"

[[record]]
cpd_smiles = "COc1cc(/C=C/C(=O)c2ccc(Cl)cc2)ccc1O"
value_kind = "solubility kinetic at 24 h, 5 µM"
experimental_value = "> 5 µM"


Record COc1cc(/C=C/C(=O)c2ccc(C)cc2)ccc1O , field solubility kinetic at 24 h, 5 µM: > 5 µM

Record Cl.NCCOCCOc1cc(/C=C/C(=O)c2ccc(Cl)cc2)ccc1O , field solubility kinetic at 24 h, 5 µM: > 5 µM

Record COc1cc(/C=C2\Cc3cc(Cl)ccc3C2=O)ccc1O , field solubility kinetic at 24 h, 5 µM: 0.88 µM

Record COc1cc(/C=C/C(=O)c2ccncc2)ccc1O , field solubility kinetic at 24 h, 5 µM: > 5 µM

Record COc1ccc(C(=O)/C=C/c2ccc(O)c(OC)c2)cc1 , field solubility kinetic at 24 h, 5 µM: > 5 µM

Record O=C(/C=C/c1ccc2c(c1)OCO2)c1ccc(Cl)cc1 , field solubility kinetic at 24 h, 5 µM: 2.31 µM

Record COc1cc(/C=C/C(=O)c2ccc(Cl)c(Cl)c2)ccc1O , field solubility kinetic at 24 h, 5 µM: > 5 µM

Record COc1cc(/C=C/C(=O)c2ccc(C(F)(F)F)cc2)ccc1O , field solubility kinetic at 24 h, 5 µM: > 5 µM

====

Some compounds, each annotated with its measured inhibition in vivo at 0.3 µmol/kg.
# System: Mus musculus
# METHOD: Inhibition of eosinophil infiltration in Balb/c mouse model of 8 day model of allergic eosinophilic airway inflammation at 300 nmol/kg dosed intranasally 2 hrs before ovalbumin challenge by hemocytometry
# Format: functional
# CONDITION DETAILS: inhaled or nasal
Please state the figure in %; there is no need to write the unit.

Below, 3 compounds whose answers are already recorded.
[[record]]
compound = "COc1cc(/C=C/C(=O)c2ccc(I)cc2)ccc1O"
value_kind = "inhibition in vivo at 0.3 µmol/kg"
experimental_value = 36

[[record]]
compound = "COc1cc(-c2cc(-c3ccc(Cl)cc3)nc(=O)[nH]2)ccc1O"
value_kind = "inhibition in vivo at 0.3 µmol/kg"
experimental_value = 48

[[record]]
compound = "COc1cc(/C=C/C(=O)c2ccc(Cl)cc2)ccc1O"
value_kind = "inhibition in vivo at 0.3 µmol/kg"
experimental_value = 47


Record COc1cc(C2CC(c3ccc(Cl)cc3)=NN2)ccc1O (centres undefined) , field inhibition in vivo at 0.3 µmol/kg: 39

====

# TESTED SYSTEM: Stromal cell-derived factor 1 (Homo sapiens, UniProt P48061)
# METHOD: Binding affinity to Texas Red-labelled CXCL12 (unknown origin) assessed as inhibition of CXCL12-Texas Red binding to EGFP-labeled human CXCR4 expressed in HEK293 cell membranes at 30 uM pre-incubated for 1 hr by FRET-based binding assay
VALUE KIND: inhibition (%)
Please state the figure in %; there is no need to write the unit.

Record COc1cc(/C=C/C(=O)c2ccc(S(=O)(=O)O)cc2)ccc1O , field inhibition: 6

Record COc1cc(/C=C/C(=O)c2cccc(Cl)c2)ccc1O , field inhibition: 25

Record COc1cc(/C=C/C(=O)c2ccc3ccccc3c2)ccc1O , field inhibition: 5

Record COc1cc(/C=C/C(=O)c2ccc([N+](=O)[O-])cc2)ccc1O , field inhibition: 30

====

# METHOD: Kinetic solubility in pH 7.4 HEPES-BSA buffer at 5 uM incubated for 24 hrs at 20 degC by HPLC method
# Type: physicochemical
# CONDITION DETAILS: read-out: Kinetic_solubility
VALUE KIND: solubility kinetic at 24 h, 5 µM (µM)
Please state the figure in µM; there is no need to write the unit.

Below, 2 compounds whose answers are already recorded.
[[record]]
cpd_smiles = "COc1cc(/C=C/C(=O)c2ccc(C(C)C)cc2)ccc1O"
experimental_value = 1.92

[[record]]
cpd_smiles = "COc1cccc(/C=C/C(=O)c2ccc(Cl)cc2)c1"
experimental_value = 0.36


Turning now to a further compound:
Record CCOc1cc(/C=C/C(=O)c2ccc(Cl)cc2)ccc1O , field solubility kinetic at 24 h, 5 µM: 4.72

====

# TESTED SYSTEM: Stromal cell-derived factor 1 (Homo sapiens, UniProt P48061)
# METHOD: Binding affinity to Texas Red-labelled CXCL12 (unknown origin) assessed as inhibition of CXCL12-Texas Red binding to EGFP-labeled human CXCR4 expressed in HEK293 cell membranes pre-incubated for 1 hr by FRET-based binding assay
# CONDITION DETAILS: hek293
VALUE KIND: Ki (µM)
Please state the figure in µM; there is no need to write the unit.

Record COc1cc(/C=C/C(=O)c2ccc(Cl)cc2)ccc1O , field Ki: 0.053

====

# METHOD: Solubility in PBS buffer
# Assay type: physicochemical
VALUE KIND: solubility

Record COc1cc(/C=C/C(=O)c2ccc(Cl)cc2)ccc1O , field solubility: 9 µM

====

# TESTED SYSTEM: Stromal cell-derived factor 1 (Homo sapiens)
# METHOD: Binding affinity to Texas Red-labelled CXCL12 (unknown origin) assessed as inhibition of CXCL12-Texas Red binding to EGFP-labeled human CXCR4 expressed in HEK293 cell membranes pre-incubated for 1 hr by FRET-based binding assay
Some molecules, each annotated with its measured pKi.
Convention used: pKi is expressed as -log10 of the molar concentration.

Below, 3 molecules whose answers are already recorded.
[[record]]
molecule = "COc1cc(/C=C/C(=O)c2cccc(Cl)c2Cl)ccc1O"
experimental_value = 6.45

[[record]]
molecule = "COc1cc(/C=C/C(=O)c2c(Cl)cccc2Cl)ccc1O"
experimental_value = 7.15

[[record]]
molecule = "O=C(/C=C/c1ccc(O)cc1)c1ccc(Cl)cc1"
experimental_value = 6.20


Record Cl.NCCOc1cc(/C=C/C(=O)c2ccc(Cl)cc2)ccc1O , field pKi: 6.45

Record COc1cc(-c2cc(-c3ccc(Cl)cc3)nc(=O)[nH]2)ccc1O , field pKi: 6.57
